method-notes: ADME solubility determination at pH 2.0 and pH 7.4
Format: physicochemical
condition-context: aqueous buffer, thermodynamic from solid; PBS pH 2.0, shaken at 25° C. for 24 hours, LC-MS/MS; read-out: Solubility at pH 2.0
solubility at 24 h for assorted molecules

Some entries whose results are on file:
CCn1cc(C(F)(F)F)nc1-c1ccc(Cn2nc(C#N)c3cnc(-c4c(OC)ncnc4C4CC4)nc32)cc1; < 10 µM
CCn1cc(C(F)(F)F)nc1-c1ccc([C@H](C)n2ncc3cnc(-c4c(OC)ncnc4C(C)C)nc32)cc1F; < 10 µM
COc1ncnc(C2CC2)c1-c1nc(OC)c2cnn(Cc3ccc(-n4nc(C(F)(F)F)cc4C)cc3)c2n1; < 10 µM

Query :: Can you look up the measured solubility at 24 h of `COc1ncnc(C2CC2)c1-c1ncc2cnn(Cc3ccc(-c4nc(C(F)(F)F)cn4CCF)cc3)c2n1` for me?
Result :: > 10 µM

----------
The compounds listed here are annotated with their half-life at 1 μM.
method-notes: Liver microsomal stability, human liver microsomes
Type: in vitro ADME
condition-context: 1 μM compound, NADPH, read-out: t1/2 (min) in HLM

COc1cc(Cn2ncc3cnc(-c4c(OC)ncnc4C4CC4)nc32)ccc1-c1cn(C)c(C(F)(F)F)n1; > 25 min

Query :: Give the measured half-life at 1 μM of `COc1ncnc(C2CC2)c1-c1ncc2nc(C3CCC3)n(Cc3ccc(-n4nc(C(F)(F)F)cc4C)cc3)c2n1` .
Result :: > 25 min

Query :: Subsequent entry: CCn1cc(C(F)(F)F)nc1-c1ccc([C@@H](C)n2ncc3cnc(-c4c(OC)ncnc4C4CC4)nc32)cc1 (single isomer, unassigned)
Result :: > 25 min

Query :: Also check `[2H]C([2H])([2H])C([2H])([2H])n1cc(C(F)(F)F)nc1-c1ccc(Cn2ncc3cnc(-c4c(OC)ncnc4C4CC4)nc32)cc1`
Result :: > 25 min

Query :: How about COc1ncnc(C2CC2)c1-c1ncc2cnn(Cc3ccc(-c4nc(C(F)(F)F)cn4CC(C)F)cc3)c2n1 (centres unmarked) ?
Result :: > 25 min

Query :: Repeat for the following compound: `COc1ncnc(C2CC2)c1-c1ncc2cnn(Cc3ccc(-c4nc(C(F)(F)F)cn4C(C)C)cc3)c2n1`
Result :: > 25 min

Query :: Request: `CC(C)Oc1ncnc(C2CC2)c1-c1ncc2cnn(Cc3ccc(-c4nc(C(F)(F)F)cn4C)cc3)c2n1`
Result :: < 25 min

Query :: Can you check `COc1nc(C)c(-c2ncc3cnn(Cc4ccc(-c5nc(C(F)(F)F)cn5C)cc4)c3n2)c(OC)n1` next?
Result :: < 25 min

Query :: What do we get for `COc1ncnc(C2CC2)c1-c1ncc2cnn(Cc3ccc(-c4nc(C(F)(F)F)oc4C)cc3)c2n1` ?
Result :: > 25 min

Query :: Now try `COc1ncnc(C2CC2)c1-c1ncc2cnn(Cc3ccc(-n4nc(C(F)(F)F)cc4-c4ccco4)cc3)c2n1` .
Result :: < 25 min

----------
method-notes: ADME solubility determination at pH 2.0 and pH 7.4
Type: physicochemical
condition-context: aqueous buffer, thermodynamic from solid; PBS pH 7.4, shaken at 25° C. for 24 hours, LC-MS/MS; read-out: Solubility at pH 7.4
Known solubility at 24 h of a selection of compounds

Query :: Which solubility at 24 h reading was recorded for the compound `COc1ncnc(C2CC2)c1-c1ncc2cnn(Cc3ccc(-c4nc(C(F)(F)F)c(Br)n4C)cc3)c2n1` ?
Result :: < 10 µM

----------
# solubility at 24 h values compiled below
method-notes: ADME solubility determination at pH 2.0 and pH 7.4
Type: physicochemical
condition-context: aqueous buffer, thermodynamic from solid; PBS pH 2.0, shaken at 25° C. for 24 hours, LC-MS/MS; read-out: Solubility at pH 2.0

COc1cnn(C2CC2)c1-c1ncc2cnn(Cc3ccc(-c4nc(C(F)(F)F)cn4C(C)C)cc3)c2n1 [Example 83]; > 10 µM
COc1ncnc(C2CC2)c1-c1ncc2cnn(Cc3ccc(-n4nc(C(F)(F)F)cc4OC)cc3)c2n1 [Example 37]; < 10 µM
COc1ncnc(C2CC2)c1-c1ncc2cnn(Cc3ccc(-c4nc(C(F)(F)F)cn4C4CCC4)cc3)c2n1 [Example 144]; < 10 µM

Please look at the following molecule next.
Query :: Which measured solubility at 24 h value corresponds to COCCOc1ncnc(C)c1-c1ncc2cnn(Cc3ccc(-n4nc(C(F)(F)F)cc4C)cc3)c2n1 [Example 47] ?
Result :: > 10 µM

----------
method-notes: Liver microsomal stability, rat liver microsomes
Assay type: in vitro ADME
condition-context: 1 μM compound, NADPH, read-out: t1/2 (min) in RLM
property-measured: half-life at 1 μM

See these solved cases before continuing.
COc1ncnc(C2CC2)c1-c1ncc2cnn(Cc3ccc(-n4nc(C(F)(F)F)cc4OC)cc3)c2n1; > 25 min
COc1ncnc(C)c1-c1ncc2cnn(Cc3ccc(-c4nc(C(F)(F)F)cn4C)cc3)c2n1; > 25 min

Query :: What half-life at 1 μM value was documented for this molecule, `COc1ncnc(C2CC2)c1-c1ncc2cnn(Cc3ccc(-n4nc(C(F)(F)F)cc4C(C)C)cc3)c2n1` ?
Result :: > 25 min

Query :: Follow-up item: `COc1ncnc(C2CC2)c1-c1ncc2cnn(Cc3ccc(-c4nc(C(F)(F)F)c(OC)n4C)cc3)c2n1`
Result :: > 25 min

Query :: Next record, please: `CCn1cc(C(F)(F)F)nc1-c1ccc(Cn2ncc3cnc(-c4c(OC)ncnc4C4CC4)nc32)cn1`
Result :: > 25 min

Query :: Record: `COc1cc(Cn2ncc3cnc(-c4c(OC)ncnc4C4CC4)nc32)ccc1-c1cn(C)c(C(F)(F)F)n1`
Result :: > 25 min

Query :: Let us now turn to `COc1ncnc(C2CC2)c1-c1ncc2cnn(Cc3ccc(-c4nc(C(F)(F)F)n(C)n4)cc3)c2n1`
Result :: > 25 min

Query :: And then `COc1cccc(C2CC2)c1-c1ncc2cnn(Cc3ccc(-c4nc(C(F)(F)F)cn4C)cc3)c2n1` , what is it?
Result :: < 25 min

Query :: Same thing, different molecule: `COc1ncnc(C2CC2)c1-c1ncc2cnn(Cc3ccc(-n4nc(C(F)F)cc4N(C)C)cc3)c2n1`
Result :: < 25 min

Query :: Item: `COc1ncnc(C2CC2)c1-c1ncc2cnn(Cc3ccc(-c4nc(C(F)(F)F)c(Br)n4C(C)C)cc3)c2n1`
Result :: > 25 min

Query :: Another molecule to check: `CCn1cc(C(F)(F)F)nc1-c1ccc(Cn2ncc3c(OC)nc(-c4c(OC)ncnc4C4CC4)nc32)cc1`
Result :: < 25 min

Query :: Another: `CCn1cc(C(F)(F)F)nc1-c1ccc(Cn2nc(SC)c3cnc(-c4c(OC)ncnc4C4CC4)nc32)cc1`
Result :: < 25 min

Query :: Also check `COc1ncnc(C2CC2)c1-c1ncc2cnn(Cc3ccc(-n4nc(C(F)(F)F)cc4CO)cc3)c2n1`
Result :: > 25 min

Query :: Further, for `COc1ncnc(C2CC2)c1-c1ncc2cnn(Cc3ccc(-c4nc5c(F)cccc5n4C)cc3)c2n1` ?
Result :: > 25 min

Query :: Please answer likewise for `COc1ncnc(C2CC2)c1-c1ncc2cnn(Cc3ccc(-c4nc(C(F)(F)F)cn4C4CCC4)cc3)c2n1`
Result :: < 25 min

Query :: Another molecule to look at: `COc1ncnc(C2CC2)c1-c1ncc2cnn(Cc3ccc(-c4nc(C(F)(F)F)cn4C4COC4)cc3)c2n1`
Result :: < 25 min

Query :: Next up: `CCn1c(-c2ccc(Cn3ncc4cnc(-c5c(OC)ncnc5C5CC5)nc43)cc2)nc(C(F)(F)F)c1C`
Result :: < 25 min

----------
method-notes: Liver microsomal stability, human liver microsomes
Format: in vitro ADME
condition-context: 1 μM compound, NADPH, read-out: t1/2 (min) in HLM
Quick reference for half-life at 1 μM among some compounds

Example entries begin here.
COc1ncnc(C2CC2)c1-c1ncc2cnn(Cc3ccc(-c4nc(C(F)(F)F)cn4C(C)C)c(F)c3)c2n1; > 25 min
CCn1cc(C(F)(F)F)nc1-c1ccc(Cn2ncc3cnc(-c4c(OCCF)ncnc4C4CC4)nc32)cc1; < 25 min
COc1ccccc1-c1ncc2cnn(Cc3ccc(-c4nc(C(F)(F)F)cn4C)cc3)c2n1; < 25 min
COc1ncnc(C2CC2)c1-c1ncc2cnn(Cc3ccc(-n4nc(C(F)(F)F)cc4SC)cc3)c2n1; < 25 min
CCn1cc(C(F)(F)F)nc1-c1ccc(Cn2ncc3cnc(-c4c(OC5CC5)ncnc4C4CC4)nc32)cc1; > 25 min

Query :: What measured half-life at 1 μM goes with `COc1ncnc(C2CC2)c1-c1ncc2cnn(Cc3ccc(-n4nc(C#N)cc4OC)cc3)c2n1` ?
Result :: > 25 min

Query :: Follow-up entry: `COc1ncnc(C2CC2)c1-c1ncc2cnn(Cc3ccc(-c4nc(C(F)(F)F)sc4C)cc3)c2n1`
Result :: > 25 min
